# Protocol Summary: Toxicity liver stage against HepG2, at 10uM
# Type: cell-based
# Set-up: test concentration 10 uM, cell line HepG2-A16-CD81EGFP
# Condition Context: human, HepG2-A16-CD81EGFP cells; read-out: INHIBITION
Metric Name: cytotoxicity at 10 µM (%)
Answers are plain numbers, in %.

N#Cc1ccc(CNCCn2cccn2)c(F)c1 = -4.22
CN(C)c1ccc(C(=O)N2CCCc3cc(OC(F)(F)F)ccc32)cn1 = -45.9
Cc1nc(-c2ccsc2)ccc1C(=O)NCCCN1CCOCC1 = -13.9
COc1cc2c(cc1CN1CCc3sccc3C1C)OCO2 (stereo not given) = 7.01
CCOc1ccccc1CCNC(=O)NCC(O)c1cccs1 (stereo not given) = -4.47

Here are 5 compounds. What values of cytotoxicity at 10 µM were reported for them?
1. COc1ccc2c(c1)CN(c1cc(N3CCCC3CO)ncn1)CC2 (stereo not given)
2. CC(C)C(NC(=O)c1ccc(N2CCOCC2)nc1)c1cccs1 (stereo not given)
3. COCc1nc(CNC2CCN(C(C)C)CC2)no1
4. Cc1cc(NC(=O)N2CCC[C@@H]2CO)nn1-c1ccccc1Cl
5. CC(C)(C)C(=O)NCCCn1cncn1

## Result
[-4.16, -44, 4.04, -1.29, -9.46]

Here are 4 compounds. What values of cytotoxicity at 10 µM were reported for them?
1. COCCOc1ccc(NC(=O)N(C)Cc2ccsc2)cn1
2. CN(C)C(=O)CO[C@H]1CN(Cc2ccccc2)[C@@H]2CCCO[C@H]12
3. Cc1nc(CN2CCCC(Cn3cc(CCO)nn3)C2)c[nH]1 (stereo not given)
4. CC(Cc1cnccn1)NC(=O)c1cccc(CC2CCNCC2)c1 (stereo not given)

## Result
1. -2.81
2. -8.1
3. -21.1
4. -9.37

Here are 6 compounds. What values of cytotoxicity at 10 µM were reported for them?
1. CCOC(C)c1nccn1Cc1noc(CC)n1 (stereo not given)
2. COCCNc1nnc(-c2cnc(C)cn2)s1
3. Cc1nc(CN2C[C@@H]3CN(C(=O)c4ccco4)C[C@@H]3C2=O)cs1
4. CC(C)n1nc(CN2CCCC2=O)c2c1CN(C(=O)c1ccco1)C2
5. CCNC(=O)C1CCN(c2nccc(C3CCCC3)n2)C1 (stereo not given)
6. CCOC(=O)C(C)Nc1cccc(COCc2ccco2)c1 (stereo not given)

## Result
[-9.06, 4.22, -77.7, 5.35, -5.6, 2.1]

The origin of these recorded values is ChEMBL document CHEMBL4513216.
